Data provenance is patent US20260144252A1.

- Tested on: summer barley (HORVS, cv. Quench)
- assay-protocol: Reduction of damage by mesosulfuron-methyl on summer barley (greenhouse, post-emergence safener test)
- Assay type: in vivo
- Parameters: key: 0: no reduction in damage (appearance corresponding to the herbicide control); 1: slight reduction in damage; 2: distinct reduction in damage; 3: significant reduction in damage; 4: complete reduction in damage (appearance corresponding to the untreated control)
- assay-conditions: safener 100 g/ha, mesosulfuron-methyl 40 g/ha, visual, 12-13 days after application
Overview of recorded Efficacy of the safener [Efficacy Code] for various compounds
Lab note: write the figure by itself, no unit.

                                   compound  observed_result
0  COCCOC(=O)COc1nc(-c2ccc(F)cc2F)n(-c2ccc(Br)cc2F)n1 [I.67-1]                3

Asked: Consider the compound CCOC(=O)COc1nc(-c2ccc(F)cc2F)n(-c2ccc(Br)cc2F)n1 [I.41-1] and give its measured Efficacy of the safener [Efficacy Code].
Given back: 3

Asked: Also COC(=O)CCOC(=O)COc1nc(-c2ccc(F)cc2F)n(-c2ccc(Br)cc2F)n1 [I.61-1] ?
Given back: 2

Asked: Also O=C(COc1nc(-c2ccc(F)cc2F)n(-c2ccc(Br)cc2F)n1)OCC1CCOC1 (stereo not shown) [I.63-1] ?
Given back: 2
